Give apparent KD of MS2 coat protein for every item shown.
# System: MS2 coat protein
# ASSAY_PROCEDURE: apparent KD of MS2 coat protein; higher = weaker reporter binding
# CONDITION_SUMMARY: Eterna round: R107; input ligand: tryptophan 2.4 mM
The reply should contain only the number, in nM.

Query block: Can you share its apparent KD of MS2 coat protein? I mean this sequence: CAGGUCAGGGCGGCCGCCACUGUGGCUACGGUACAUGAGGAUCACCCAUGUUUGUGGUUGAUCUACAGGACCGGGCCCUAACACG [Beabe]
Result block: 126

Query block: Can you share its apparent KD of MS2 coat protein? I mean this sequence: GCACGACAUGAGGAUCACCCAUGUGCAGAUACCAGUAAUGUAUGUUACCCUUGGCAGCUGAGUAGGUCUGGAGGGCUAUAGGUAA [Same State Theophylline A GF12]
Result block: 13.7

Query block: Can you share its apparent KD of MS2 coat protein? I mean this sequence: AUACAUGAGGAUCACCCAUGUCAUUCAGAAGGAGCGUCAUUUUAGACAGGUAGGUCGCUGUUAUUGGUAUUAUACUUUAUGUUUA [JR_ExcArginiA_Sub024]
Result block: 28.9

Query block: Can you share its apparent KD of MS2 coat protein? I mean this sequence: UUAAGAGGCUAUCAAAUUUGAUUUUGUGAUACCAGAAUAAUUUUAUUCCCUUGGCAGCAUGACAUGAGGAUCACCCAUGUGUCUU [SSTheo A #2]
Result block: 34.6

Query block: Can you share its apparent KD of MS2 coat protein? I mean this sequence: "GGGUACAUCGCGGCCGCCACUUGUGUAAAUACAUGAGGAUCACCCAUGUCGAUGGAGACAUCGGAGAGGACCGGGUGAUGUACCG"
Result block: 40.8

Query block: Can you share its apparent KD of MS2 coat protein? I mean this sequence: AAAUAAAUAACUGAUACCAGUGUACUGACAUGAGGAUCACCCAUGUUGGGUUUGGUUGUACACCCUUGGCAGCAGAAAUAUAAAA [test (nupak]
Result block: 15.1

Query block: Can you share its apparent KD of MS2 coat protein? I mean this sequence: ACUUGAUACUGAAGGAGCGUCGGAUAAACUCGCACAUGAGGAUCACCCAUGUAUAUGAAUCGGCAGGUAGGUCGCAGUAUCGAGU [#21 Same State - Arginine B]
Result block: 15.4

Query block: Can you share its apparent KD of MS2 coat protein? I mean this sequence: AAAUGAGGAUCACCCAUGUAACAACGGGAAGGAGCGCCAAACAAGGCAGGUAGGUCGCCCACAUGAGGAUCACCCAUGUGUUGGG [Exclusion Arginine A GF 28]
Result block: 177

Query block: Can you share its apparent KD of MS2 coat protein? I mean this sequence: UCGUGAGUUUCGGAUACCAGUGUUGUCGAUACAUGAGGAUCACCCAUGUUAGAGGAUGUACACCCUUGGCAGCCGGCUGUGGCGG [lplmullin]
Result block: 17.3

Query block: Can you share its apparent KD of MS2 coat protein? I mean this sequence: ACAUGAGGAUCACCCAUGUAAGAUGCAGAAGGAGCGGGAAAUAACCCAGGUAGGUCGCUGCGGUUUGGAUUAUUGUGUUCGUGAA [#08 Exclusion - Arginine A]
Result block: 12.5

Query block: Can you share its apparent KD of MS2 coat protein? I mean this sequence: CCUUAAUAUAGAAGGAGCGCGCUAACAUGAGGAUCACCCAUGUAAAGGGUUUUGGGCUUAGCGCAGGUAGGUCGCUAUAAGAACC [Arg B Ex t2]
Result block: 93.9

Query block: Can you share its apparent KD of MS2 coat protein? I mean this sequence: UGCACCAUAAUCAUGUUGGUGCUAGGUGAUACCAGCAUCGAAAGAUGCCCUUGGCAGCACCAACAUGAGGAUCACCCAUGUAAUA [(MT)''-(M)'-(T')-(Theo)-(Ms2)_Design1/22_3]
Result block: 57.9

Taken from the supplement of paper PMC9170038.
